# Test system: BDF1 mice, P388 leukemia ip, median survival T/C
# testDescription: NCI In Vivo Anticancer Drug Screen. Data for tumor model P388 Leukemia (intraperitoneal) in B6D2F1 (BDF1) mice
# studyConditions: endpoint: median survival time; dose: 300.0 mg/kg/injection; schedule: Q04DX003 (ip); vehicle: saline with Tween-80; higher = longer survival
Inconclusive results and toxic doses are left out.
readout: T/C

# query: T/C of entry O=C1OC(c2ccccc2)=C/C1=C/c1ccc([N+](=O)[O-])cc1
87 % of control

# query: T/C of entry N=C(N)SCc1c2ccccc2cc2ccccc12
90 % of control

# query: T/C of entry Clc1nc2nsnc2nc1Cl
115 % of control

# query: T/C of entry Cc1[nH]nc(C(N)=O)c1N=NN(C)C
100 % of control

* * *

# Tested on: BDF1 mice, P388 leukemia ip, median survival T/C
# testDescription: NCI In Vivo Anticancer Drug Screen. Data for tumor model P388 Leukemia (intraperitoneal) in B6D2F1 (BDF1) mice
# studyConditions: endpoint: median survival time; dose: 25.0 mg/kg/injection; schedule: Q01DX009 (ip); vehicle: saline with Tween-80; higher = longer survival
Inconclusive results and toxic doses are left out.
Field: T/C. Provide a value for each of the compounds that follow.

# query: T/C of entry CS(=O)(=O)c1cnc2ccccc2n1
97 % of control

# query: T/C of entry CCC1CN2CCc3cc(OC)c(OC)cc3C2CC1C#N (stereo unspecified)
89 % of control

# query: T/C of entry CC(C)(Br)C(=O)c1ccc([N+](=O)[O-])o1
100 % of control

# query: T/C of entry IC1CCCOC1[n+]1ccccc1 (stereo unspecified)
104 % of control

# query: T/C of entry CC1(C)N=C(N)N=C(N)N1c1ccc(CCC(=O)Nc2ccc(S(=O)(=O)F)cc2)cc1
163 % of control

# query: T/C of entry CCCC(=O)c1cc(O)c(O)cc1O
104 % of control

# query: T/C of entry C(#CCN1CCCC1)CCCN1CCCC1
111 % of control

# query: T/C of entry CCOC(=O)c1cccc2cccc(C(=O)OCC)c12
106 % of control

# query: T/C of entry c1ccc(C(Nc2nccs2)Nc2nccs2)cc1
108 % of control

# query: T/C of entry Cc1nc(OCc2ccccc2)c(C(=O)OCc2ccccc2)nc1C
100 % of control

# query: T/C of entry O=C1CCC(=O)N1CCC(=O)N(C(=O)NC1CCCCC1)C1CCCCC1
101 % of control

# query: T/C of entry CCCCCCCS(=O)CCCCCCC
95 % of control

# query: T/C of entry CCOC(=O)C(OCc1ccccc1)(C(=O)O)C(C)C (stereo unspecified)
95 % of control

# query: T/C of entry O=[N+]([O-])c1ccc(/C=N/c2ncc(Br)s2)o1
120 % of control

# query: T/C of entry COc1cc(C=Nc2cccc(Cl)c2)ccc1N(CCCl)CCCl
187 % of control

# query: T/C of entry CC(=O)CC(=O)NCCCN1CCCCC1
88 % of control

# query: T/C of entry Cc1ccccc1P(=O)(c1ccccc1C)c1ccccc1C
90 % of control

# query: T/C of entry O=c1[nH]nc(-c2ccccc2)nc1/C(=N\Nc1ccccc1)c1ccccc1
92 % of control

# query: T/C of entry Cc1cc(-c2ccccc2)[n+](C)n1C
118 % of control

# query: T/C of entry CC1(C)N=C(N)N=C(N)N1c1ccc(OCCCNC(=O)Nc2cccc(S(=O)(=O)F)c2)c(Cl)c1
177 % of control

# query: T/C of entry CCCCCCCCCCOP(=S)(N1CC1)N1CC1
245 % of control

# query: T/C of entry CCCC(C)(O)C#CC(C)(O)CCC (stereo unspecified)
92 % of control

# query: T/C of entry [O-][n+]1c(CN2CCCCC2)nc2cccc3c2c1-c1ccccc1-3
105 % of control

# query: T/C of entry O=[N+]([O-])c1ccc2c(c1)c(-c1cc(Cl)cc(Cl)c1)nc1ccccc12
108 % of control

# query: T/C of entry NC(N)=N/N=C/c1cccc2ccccc12
108 % of control

# query: T/C of entry O=C(c1cc2c3ccccc3ccc2c2ccccc12)C(Br)Br
113 % of control

* * *

# Tested on: BDF1 mice, P388 leukemia ip, median survival T/C
# testDescription: NCI In Vivo Anticancer Drug Screen. Data for tumor model P388 Leukemia (intraperitoneal) in B6D2F1 (BDF1) mice
# studyConditions: endpoint: median survival time; dose: 100.0 mg/kg/injection; schedule: Q04DX003 (ip); vehicle: saline; higher = longer survival
Toxic doses and inconclusive results are not listed.
Field: T/C. Provide a value for each of the compounds that follow.

# query: T/C of entry Nc1ccn(CC(=O)c2ccco2)c(=O)n1
105 % of control

# query: T/C of entry O=C(Nc1cccc(C(F)(F)F)c1)Nc1c(Oc2ccc(Cl)c(Cl)c2)ccc(Cl)c1S(=O)(=O)O
100 % of control

# query: T/C of entry O=C1CCCN1C1=CC2=C(CCc3ccccc32)S(=O)(=O)O1
90 % of control

# query: T/C of entry CC(O)(C(=O)O)c1ccccc1 (configuration not stated) (tested in a mixture with another compound)
100 % of control

# query: T/C of entry CCn1c(O)c(C=N)c(=O)[nH]c1=O
100 % of control

# query: T/C of entry Cc1cc(N)on1
109 % of control

# query: T/C of entry C#CCSc1ncnc2nc[nH]c12
100 % of control

# query: T/C of entry Cc1ccc(-n2nnc3ccccc3c2=O)cc1C
100 % of control

# query: T/C of entry NN1CCCC1
104 % of control

# query: T/C of entry CN1c2c(nc(N)[nH]c2=O)NCC1CCNc1ccc(C(=O)NC(CCC(=O)O)C(=O)O)cc1 (configuration not stated)
109 % of control

# query: T/C of entry COC(OC)C12CC(OC(=O)N1)C(C)CO2 (configuration not stated)
106 % of control

# query: T/C of entry CC(=O)CC(C)=O.CC(=O)CC(C)=O.CC(=O)CC(C)=O.[In]
109 % of control

* * *

Field: T/C. Provide a value for each of the compounds that follow.
# Tested on: BDF1 mice, P388 leukemia ip, median survival T/C
# testDescription: NCI In Vivo Anticancer Drug Screen. Data for tumor model P388 Leukemia (intraperitoneal) in B6D2F1 (BDF1) mice
# studyConditions: endpoint: median survival time; dose: 200.0 mg/kg/injection; schedule: Q01DX001 (ip); vehicle: Klucel (hydroxypropylcellulose) (HPC); higher = longer survival
Toxic doses and inconclusive results are not listed.

# query: T/C of entry CC1(C)C=C(C(N)=O)C(C)(C)N1O
88 % of control

# query: T/C of entry Cc1ccccc1C1c2ccccc2C(=O)c2cccc(C)c21 (stereo not given)
109 % of control

# query: T/C of entry O=C(O)CCCCCNC(=O)c1ccccc1
104 % of control

# query: T/C of entry Cc1cc(=O)[nH]c2c1ccc1[nH]c(=O)cc(C)c12
87 % of control

# query: T/C of entry CCOC1(CC)CN(Cc2ccccc2)CCO1 (stereo not given)
121 % of control

* * *

Field: T/C. Provide a value for each of the molecules that follow.
# System: BDF1 mice, P388 leukemia ip, median survival T/C
# testDescription: NCI In Vivo Anticancer Drug Screen. Data for tumor model P388 Leukemia (intraperitoneal) in B6D2F1 (BDF1) mice
# studyConditions: endpoint: median survival time; dose: 50.0 mg/kg/injection; schedule: Q04DX003 (ip); vehicle: saline with Tween-80; higher = longer survival
Inconclusive results and toxic doses are left out.

# query: T/C of entry CCN(CC)c1ccc(/C=C\c2c(C)cnc3ccccc23)cc1
95 % of control

# query: T/C of entry CCOC(=O)NC1CCC2c3ccccc3C([N+](=O)[O-])(C1)c1ccccc12 (stereo unspecified)
100 % of control

# query: T/C of entry Cc1ccc(CNc2cc(C)ccn2)cc1
105 % of control

# query: T/C of entry CCNC(C)(C)C(=O)c1ccc(Cl)s1
99 % of control

# query: T/C of entry COC(=O)N1c2ccccc2C=CC1C#N (stereo unspecified)
109 % of control

# query: T/C of entry COc1cccc(C=O)c1OC
112 % of control

* * *

# Test system: BDF1 mice, P388 leukemia ip, median survival T/C
# testDescription: NCI In Vivo Anticancer Drug Screen. Data for tumor model P388 Leukemia (intraperitoneal) in B6D2F1 (BDF1) mice
# studyConditions: endpoint: median survival time; dose: 25.0 mg/kg/injection; schedule: Q01DX009 (ip); vehicle: saline
Inconclusive results and toxic doses are left out. How the source made its calls: active means survival T/C of 150% or more; inactive means T/C below 125% in these data.
Your response should consist of one outcome taken from active, inactive

What outcome does the record of this test show for CN(C)c1ccc(C(O)C(N)=O)cc1 (configuration not stated) ?
inactive

What outcome does the record of this test show for Cc1cc(NC(=O)NCc2ccc(N3C(N)=NC(N)=NC3(C)C)cc2)ccc1S(=O)(=O)F ?
active

What outcome does the record of this test show for CN(C)CCCN1c2ccccc2Sc2ccc(C(F)(F)F)cc21 ?
inactive

What outcome does the record of this test show for CCCCCCCCCCCC[N+]1([O-])CCCC1 ?
inactive

What outcome does the record of this test show for COc1cc2c(cc1OC)C(=O)CN(S(=O)(=O)c1ccc(C)cc1)CC2 ?
inactive

What outcome does the record of this test show for CCOC(=O)c1cnn(-c2ccccc2)c1N ?
inactive

What outcome does the record of this test show for CC(C)(Br)C(=O)c1ccc([N+](=O)[O-])o1 ?
inactive

What outcome does the record of this test show for NNC(=O)[C@H]1CC[C@H]1C(=O)NN ?
inactive

What outcome does the record of this test show for O=NN(CCCl)C(=O)N[C@@H]1CCCC[C@H]1NC(=O)N(CCCl)N=O ?
active

What outcome does the record of this test show for O=C(O)CN=Cc1ccccc1O.O=C(O)CN=Cc1ccccc1O.[Fe] ?
inactive

What outcome does the record of this test show for COC(=O)CC(N)C(=O)OC (configuration not stated) ?
inactive

What outcome does the record of this test show for COc1cc2c(cc1OC)C(CCN1C(=O)c3ccccc3C1=O)=NCC2 ?
inactive
